All values here come from BigSolDB 2.1.

details: in isopropanol, 283.07 K
endpoint: solubility (mole fraction)
// return just the number, without any unit appended

Prompt: For the compound C1=Cc2cccc3cccc1c23 , what solubility (mole fraction) is on record?
Response: 0.00592

----------
conditions: in n-butanol, 288.05 K
endpoint: solubility (mole fraction)

Prompt: Give its solubility (mole fraction) value. Item: C1=Cc2cccc3cccc1c23
Response: 0.0154

----------
conditions: in isopropanol, 318.4 K
endpoint: solubility (mole fraction)
Please reply with the value in numeric form only.

Prompt: Which solubility (mole fraction) value is on record for C1=Cc2cccc3cccc1c23 ?
Response: 0.0302

----------
settings: in n-butanol, 313.2 K
endpoint: solubility (mole fraction)
Answer with the value's number alone.

Prompt: Could you share which solubility (mole fraction) value was measured for C1=Cc2cccc3cccc1c23 ?
Response: 0.0427

----------
conditions: in n-butanol, 283.05 K
endpoint: solubility (mole fraction)
No unit in the answer, only the number.

Prompt: Would you mind telling me what solubility (mole fraction) value was observed for C1=Cc2cccc3cccc1c23 ?
Response: 0.0122

----------
settings: in ethanol, 303.2 K
endpoint: solubility (mole fraction)

Prompt: Item under review: C1=Cc2cccc3cccc1c23 . Reported solubility (mole fraction)?
Response: 0.0133

----------
conditions: in isopropanol, 303.3 K
endpoint: solubility (mole fraction)
Enter a number only.

Prompt: Reported solubility (mole fraction) for C1=Cc2cccc3cccc1c23 : what is it?
Response: 0.0152
